# Tested on: Escherichia coli TOP10;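 note: peptides expressed intracellularly from a pBAD plasmid library in pooled LB shake-flask culture, induced with 0.3% L-arabinose, DNA abundance read by NGS, three biological replicates, DESeq2 with apeglm shrinkage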
# Assay Overview: shrunken log2 fold change of peptide-encoding DNA abundance (4.5 h post-induction vs induction); higher = less antimicrobial activity (less host growth inhibition)
# Experimental Conditions: time post-induction: 4.5 h; library: site-saturation at positions 5, 18, 19, 20
Binning rule for recorded shrunken log2 fold change: lower band (below -0.2), central band (-0.2 to below 0.06), upper band (0.06 or more)

**Query** Band for the recorded shrunken log2 fold change of RRIRGRPPRLPRPRPRPECPPRP ?
**Result** upper band

**Query** Band for the recorded shrunken log2 fold change of RRIRWRPPRLPRPRPRPCEAPRP ?
**Result** upper band

**Query** Band for the recorded shrunken log2 fold change of RRIRSRPPRLPRPRPRPRKYPRP ?
**Result** lower band

**Query** Band for the recorded shrunken log2 fold change of RRIRARPPRLPRPRPRPMRGPRP ?
**Result** upper band

**Query** Band for the recorded shrunken log2 fold change of RRIRKRPPRLPRPRPRPMTIPRP ?
**Result** central band

**Query** Band for the recorded shrunken log2 fold change of RRIRKRPPRLPRPRPRPWMGPRP ?
**Result** central band

**Query** Band for the recorded shrunken log2 fold change of RRIRERPPRLPRPRPRPDVAPRP ?
**Result** upper band

**Query** Band for the recorded shrunken log2 fold change of RRIRIRPPRLPRPRPRPPLMPRP ?
**Result** central band

**Query** Band for the recorded shrunken log2 fold change of RRIRKRPPRLPRPRPRPWMHPRP ?
**Result** central band

**Query** Band for the recorded shrunken log2 fold change of RRIRARPPRLPRPRPRPFRQPRP ?
**Result** central band

**Query** Band for the recorded shrunken log2 fold change of RRIRMRPPRLPRPRPRPEKWPRP ?
**Result** upper band

**Query** Band for the recorded shrunken log2 fold change of RRIRLRPPRLPRPRPRPIFMPRP ?
**Result** lower band

**Query** Band for the recorded shrunken log2 fold change of RRIRRRPPRLPRPRPRPDFHPRP ?
**Result** central band

**Query** Band for the recorded shrunken log2 fold change of RRIRARPPRLPRPRPRPNITPRP ?
**Result** central band

**Query** Band for the recorded shrunken log2 fold change of RRIRRRPPRLPRPRPRPWVNPRP ?
**Result** central band

**Query** Band for the recorded shrunken log2 fold change of RRIRERPPRLPRPRPRPIKHPRP ?
**Result** lower band

**Query** Band for the recorded shrunken log2 fold change of RRIRSRPPRLPRPRPRPETDPRP ?
**Result** upper band

**Query** Band for the recorded shrunken log2 fold change of RRIRYRPPRLPRPRPRPICDPRP ?
**Result** lower band

**Query** Band for the recorded shrunken log2 fold change of RRIRMRPPRLPRPRPRPEWAPRP ?
**Result** upper band

**Query** Band for the recorded shrunken log2 fold change of RRIRERPPRLPRPRPRPTTNPRP ?
**Result** central band

**Query** Band for the recorded shrunken log2 fold change of RRIRFRPPRLPRPRPRPNMEPRP ?
**Result** central band

**Query** Band for the recorded shrunken log2 fold change of RRIRQRPPRLPRPRPRPQLAPRP ?
**Result** central band

**Query** Band for the recorded shrunken log2 fold change of RRIRHRPPRLPRPRPRPENNPRP ?
**Result** lower band

**Query** Band for the recorded shrunken log2 fold change of RRIRQRPPRLPRPRPRPDMWPRP ?
**Result** central band

**Query** Band for the recorded shrunken log2 fold change of RRIRFRPPRLPRPRPRPTPWPRP ?
**Result** upper band

**Query** Band for the recorded shrunken log2 fold change of RRIRIRPPRLPRPRPRPFCFPRP ?
**Result** lower band

**Query** Band for the recorded shrunken log2 fold change of RRIRIRPPRLPRPRPRPPWFPRP ?
**Result** central band

**Query** Band for the recorded shrunken log2 fold change of RRIRWRPPRLPRPRPRPLSLPRP ?
**Result** central band

**Query** Band for the recorded shrunken log2 fold change of RRIRPRPPRLPRPRPRPICGPRP ?
**Result** upper band

**Query** Band for the recorded shrunken log2 fold change of RRIRLRPPRLPRPRPRPCVTPRP ?
**Result** lower band

**Query** Band for the recorded shrunken log2 fold change of RRIRTRPPRLPRPRPRPHWVPRP ?
**Result** upper band

**Query** Band for the recorded shrunken log2 fold change of RRIRWRPPRLPRPRPRPWVRPRP ?
**Result** central band
